# system: recombinant α-synuclein fibrils (Homo sapiens, UniProt P37840)
# method.notes: Thioflavin T competitive binding fluorescence assay
# test.settings: mean ± SD, at least three experiments, NB = no binding was measurable (concentrations up to 10 μM)

{"compound": "COc1ccc2nc(/C=C/c3ccncc3Cl)ccc2c1", "Thioflavin T assay Ki": "no binding"}
{"compound": "COc1cccc2nc(/C=C/c3ccccc3)ccc12 [Compound 1, (E)-5-Methoxy-2-styrylquinoline]", "Thioflavin T assay Ki": "no binding"}
{"compound": "COc1ccc2nc(/C=C/c3ccnc(F)c3)ccc2c1", "Thioflavin T assay Ki": "no binding"}
{"compound": "COc1cccc2ccc(/C=C/c3ccccc3)nc12 [Compound 4, (E)-8-Methoxy-2-styrylquinoline]", "Thioflavin T assay Ki": "no binding"}
